What IC50 was measured for each of the following?
- protocolNotes: Inhibition of Aurk mouse L929sA cells transfected with human Fas assessed as increase in nuclear area after 24 hrs in presence of TNF by Hoechst 33342 staining-based microscopic assay

Examples from the recorded data:
{"mol": "Cc1[nH]nc(Nc2cc(N3CCN(C)CC3)nc(Nc3ccc(NC(=O)C4CCCCC4)cc3)n2)c1C", "IC50": "> 3000 nM"}
{"mol": "Cc1cc(Nc2cc(N3CCCCC3)nc(Sc3ccc(NC(=O)C4CC4)cc3)n2)n[nH]1", "IC50": "1000 nM"}
{"mol": "Cc1[nH]nc(Nc2nc(Sc3ccc(NC(=O)C4CC4)cc3)nc(N3CCCCC3)n2)c1C", "IC50": "> 3000 nM"}
{"mol": "Cc1cc(Nc2cc(N3CCOCC3)nc(Sc3ccc(NC(=O)C4CCCCC4)cc3)n2)n[nH]1", "IC50": "< 600 nM"}
{"mol": "Cc1cc(Nc2cc(N3CCCCC3)nc(Nc3ccc(NC(=O)C4CC4)cc3)n2)n[nH]1", "IC50": "> 3000 nM"}

Count: 3. Required value per item: IC50.
1. Cc1cc(Nc2cc(N3CCN(C)CC3)nc(Nc3ccc(NC(=O)C4CCCCC4)cc3)n2)n[nH]1
2. Cc1[nH]nc(Nc2cc(N3CCN(C)CC3)nc(Nc3ccc(NC(=O)C4CC4)cc3)n2)c1C
3. Cc1[nH]nc(Nc2nc(Sc3ccc(NC(=O)C4CCCCC4)cc3)nc(N3CCCCC3)n2)c1C

> 3000 nM
> 3000 nM
> 3000 nM
